In this section, each of the compounds is paired with its reported differential viability (reversal).
- Assay comment: reversal of MRP1-mediated doxorubicin resistance, pilot screen, H69AR cells, doxorubicin co-treatment (AID 601)
- Particulars: H69AR cells + 2 uM doxorubicin, CellTiter-Glo, 72 h; at 10 µM; stronger effect = higher value
Recorded endpoint: differential viability (reversal) (%)

# Compound, Endpoint value
data = [
    ("O=C(c1ccccc1)N1CCN(CC2CC=CCC2)CC1 (centres undefined)", 2.54),
    ("CCOC(=O)N1CCN(C(=O)CN(C)S(=O)(=O)c2ccc(OC)c(OC)c2)CC1", 3.21),
    ("COc1cc(C2c3c(n[nH]c3C)C(=O)N2c2ccc(C)cc2)ccc1O (centres undefined)", 3.7),
    ("CCCCC[C@H](O)/C=C/[C@H]1C=CC(=O)[C@@H]1C/C=C\\CCCC(=O)O", 9.76),
    ("Cc1ccccc1NS(=O)(=O)c1ccc(NC(=O)c2ccco2)cc1", -0.49),
    ("CC(C)OC(=O)c1ccc(NC(=O)C2C3CC4OC(=O)C2C4C3)cc1 (centres undefined)", 7.04),
    ("COc1ccccc1N1CCN(Cc2nc(N)nc(Nc3ccc(C)c(Cl)c3)n2)CC1", -26.3),
    ("COc1cc(NS(=O)(=O)c2ccc(N)cc2)nc(OC)n1", 11.7),
    ("c1ccc2c(-c3nc(-c4ccncc4)no3)cccc2c1", 5.25),
    ("COC(=O)c1cc(-c2c(C)nn(-c3ccccc3)c2C)n[nH]1", -2.79),
    ("NS(=O)(=O)c1ccc(NC(=O)N[C@@H](Cc2ccccc2)C(=O)O)cc1", 5),
    ("CCCOC(=O)/C(C(N)=NCc1ccccc1)=C(\\O)OCCC", -4.66),
    ("CCCCCCn1c(CN2CCCC(C)C2)nc2c1c(=O)n(C)c(=O)n2C (centres undefined)", 7.51),
    ("CN1CCN(CC#CCC(O)(c2ccccc2)C2CCCC2)CC1 (centres undefined)", 1.13),
]

###

- Assay comment: reversal of MRP1-mediated doxorubicin resistance, pilot screen, H69AR cells, doxorubicin co-treatment (AID 601)
- Particulars: H69AR cells, CellTiter-Glo, 72 h; compound alone cytotoxicity; at 10 µM

# Molecule, viability
data = [
    ("Cn1c(SCC(=O)Nc2cccc3ccccc23)nc(O)cc1=O", "89.7%"),
    ("CCOC(=O)Nc1ccc(NS(=O)(=O)c2ccc(C)cc2)cc1", "83.7%"),
    ("Cc1nc(N)[nH]c(=O)c1CCC(=O)OCC(C)C", "91.2%"),
    ("CCOC(=O)C1=C(CC)Nc2ccccc2N=C1NC(=O)Nc1ccccc1OC", "74%"),
    ("CCc1ccccc1OCCCCN1CCCC1", "89.1%"),
    ("CCCC(=O)Nc1ccccc1NC(=O)CCC", "96%"),
    ("Cc1cnc(C(=O)Nc2nnc(C(C)C)s2)cn1", "87.4%"),
    ("Cc1occc1C(=O)Nc1cccc2ccccc12", "73.2%"),
    ("CCN1CCc2c(C#N)c(N3CCCCC3)nc(NCc3ccccc3)c2C1", "16.3%"),
    ("N#CCCn1cnc2ccccc21", "104%"),
    ("O=C(Nc1ncnc2sc3c(c12)CCCCC3)c1ccco1", "73.8%"),
    ("COc1cccc(S(=O)(=O)Nc2ccc(C(=O)N3CCN(C(=O)c4ccco4)CC3)cc2)c1", "86.3%"),
    ("Cc1nnc(SCC(=O)Nc2ccc3c(c2)OCCO3)n1CC1CCCO1 (stereo unspecified)", "94%"),
    ("O=C1COc2ccc(C(=O)COC(=O)CCc3ccc(S(=O)(=O)N4CCOCC4)cc3)cc2N1", "79%"),
    ("O=C(NC1CCCCC1NC(=O)c1ccco1)c1ccco1 (stereo unspecified)", "90%"),
    ("CC(C)n1nc(C(=O)Nc2nc3ccc(S(C)(=O)=O)cc3s2)c2ccccc2c1=O", "67.8%"),
    ("Cc1ccc(SCCC(=O)N(C)C)cc1", "103%"),
    ("CCNCc1cc2cc(C)ccc2[nH]c1=O", "82.7%"),
    ("Cc1cc(=O)n2nc(N3CCC(C(=O)N4CCN(Cc5ccccc5)CC4)CC3)sc2n1", "91.1%"),
    ("CC1CN(c2nc3ccccc3nc2C(C#N)C(=O)OC2CCCCC2)CC(C)O1 (stereo unspecified)", "96.1%"),
    ("COCC(=O)n1nc(NCc2ccc(OC)cc2)nc1NCc1ccc(OC)cc1", "99.8%"),
    ("CCN(CC)c1ccc2c(c1)C(=O)N(C)C2=O", "84.6%"),
    ("CCOC(=O)c1sc(NC(=O)CSc2n[nH]c(-c3ccccc3)n2)c(C#N)c1C", "41.3%"),
    ("COP(C)(=O)c1c(C)nn(-c2ccccc2)c1C (stereo unspecified)", "96.3%"),
    ("COc1ccc(C2C(C(=O)c3sc(C)nc3C)=C(O)C(=O)N2CCN(C)C)cc1 (stereo unspecified)", "93.1%"),
    ("COc1ccc(N2C(=O)C(Cl)=C(N3CCCC3)C2=O)cc1", "94.7%"),
    ("COc1cccc(-c2csc(N3CCN(CC(=O)Nc4ccc5c(c4)OCO5)CC3)n2)c1", "80.3%"),
    ("COc1cc2c(cc1OC)CN(C(=O)COc1ccc(C#N)cc1)CC2", "84.8%"),
    ("COc1ccc(NS(=O)(=O)c2ccc(N)cc2)nn1", "104%"),
    ("O=C(Nc1nc(-c2ccccc2)cs1)C1CCCO1 (stereo unspecified)", "94.2%"),
    ("Cc1ccc(CNc2cc(-c3nn4c(C)nnc4s3)ccc2C)s1", "58.8%"),
]

###

- Assay comment: growth suppression of yeast trafficking mutant, preliminary HTS, modulators of trafficking downstream of Golgi apparatus project, 1536-format plate, OD 615 nm (AID 637)
- Particulars: yeast transport mutant growth, absorbance 615 nm, 18 h; stronger effect = higher value
The source made the active and inactive calls. No stated cut-off is given here; in the data, active means inhibition above about 30%; inactive means the rest.
Entries and their inhibition values follow.
Recorded endpoint: inhibition

# Molecule, Endpoint value
rows = [
    ("CCOC(=O)c1oc2cc(OCC(N)=O)ccc2c(=O)c1-c1ccc(OC)c(OC)c1", "-0.55% (inactive)"),
    ("CCOC(=O)c1cc(-c2ccc3c(c2)OCO3)nc2onc(C)c12", "2.9% (inactive)"),
    ("CCc1[nH]nc2c1C1(CCN(C(=O)OCc3ccccc3)CC1)C(C#N)=C(N)O2", "2.1% (inactive)"),
    ("Oc1ccc(N2CCN(C(c3ccncc3)c3nnnn3C3CCCC3)CC2)cc1 (configuration not stated)", "2.58% (inactive)"),
    ("CC(=O)Nc1cccc(NC(=O)CSc2nnnn2C)c1", "0.95% (inactive)"),
    ("C=C(C)C1Cc2c(C)nn(-c3nc(C)cc(C)n3)c2C1 (configuration not stated)", "13.4% (inactive)"),
    ("COc1cc(NC(=O)Cc2ccccc2OC)cc(OC)c1", "-6.67% (inactive)"),
    ("O=C(CSc1nc(-c2ccco2)cc(C(F)(F)F)n1)N1CCCc2ccccc21", "-0.16% (inactive)"),
    ("CC1Cc2ccccc2N1CC(=O)NC(=O)NCc1ccco1 (configuration not stated)", "2.36% (inactive)"),
    ("Cc1c(C(=O)NCc2ccoc2)oc2ccc3c(c12)C(=O)CC(C)(C)O3", "3.77% (inactive)"),
    ("CSc1ccccc1NC(=O)CN(Cc1ccccc1)S(C)(=O)=O", "10.6% (inactive)"),
    ("COC(=O)c1ccccc1NC(=O)c1ccc(-c2ccccc2F)o1", "-2.74% (inactive)"),
    ("COCCOC(=O)c1cc(C(=O)c2cc(F)ccc2O)coc1=N", "-5.08% (inactive)"),
    ("O=C(Nc1ccc(Cc2ccncc2)cc1)C1CC1", "1.75% (inactive)"),
    ("Cc1ccc2occ(CN3CCN(c4ccccc4)CC3)c(=O)c2c1", "-3.77% (inactive)"),
    ("Cc1ccc2c(c1C)NC(C(=O)O)C1CC=CC21 (configuration not stated)", "-1.09% (inactive)"),
    ("O=C(Nc1nnc(C2CCCCC2)s1)c1cccs1", "-3.81% (inactive)"),
    ("O=C(NCCCN1CCN(Cc2ccccc2)CC1)C1CCN(c2nnc(-n3cccc3)s2)CC1", "-1.82% (inactive)"),
    ("Cc1ccc2nc(C3CCN(CC(=O)N4CCCCCC4)CC3)[nH]c2c1", "0.73% (inactive)"),
    ("CCOC(=O)C1=C(N)c2ccccc2CC1C(C)C (configuration not stated)", "-1.9% (inactive)"),
    ("Cc1ccccc1NS(=O)(=O)c1cc(C(=O)N2CCCC2)ccc1C", "-8.25% (inactive)"),
    ("Cn1c(-c2ccc(F)cc2)cnc1NCc1ccccc1", "4.6% (inactive)"),
    ("CCOC(=O)C1CCCN(CC(=O)NC2CC2)C1 (configuration not stated)", "-2.91% (inactive)"),
    ("Cc1cccc(N2CCN(C(=O)c3ccc(NS(=O)(=O)c4c(C)noc4C)cc3)CC2)c1C", "2% (inactive)"),
    ("O=P1(O)C=C(c2ccccc2)NC(c2ccccc2)=C1", "0.48% (inactive)"),
    ("O=C(c1cccs1)N(Cc1ccco1)Cc1cc2ccccc2[nH]c1=O", "-4.91% (inactive)"),
    ("CC1CCN(C(=O)c2ccc(C(=O)N3CCC(C)CC3)cc2)CC1", "0.48% (inactive)"),
    ("COc1ccc(C)cc1-n1nnnc1SC/C(O)=C(\\C#N)c1nc2ccccc2[nH]1", "1.27% (inactive)"),
    ("CC1(C)CC(=O)C(CC(=O)NC(=O)NCc2ccccc2)=C(O)C1", "-10% (inactive)"),
    ("CCOC(=O)Cc1csc(NC(=O)CSc2nnc(C3CC3)n2C)n1", "-3.82% (inactive)"),
    ("Cc1csc(NC(=O)c2ccccc2C(=O)O)n1", "1.27% (inactive)"),
    ("Cc1ccc(Cn2ccc(NC(=O)c3cc(-c4cccs4)on3)n2)cc1", "-2.46% (inactive)"),
    ("COc1ccc(OCC(=O)N2CCN(C(=O)COc3ccc(Br)cc3)CC2)cc1", "3.71% (inactive)"),
    ("O=C(O)c1ccc2noc(-c3ccccc3)c2c1", "-4% (inactive)"),
    ("COc1ccc(OC)c(NC(=O)CSc2nnc(-c3ccco3)n2-c2ccccc2)c1", "3.45% (inactive)"),
    ("Cc1noc(C)c1COc1cccc(C(=O)Oc2ccc3c(c2)OCO3)c1", "1.75% (inactive)"),
    ("CCCCOc1ccccc1C1C(C(N)=O)=C(C)Nc2nnnn21 (configuration not stated)", "0.82% (inactive)"),
]
